- experimental system: T1, CRBN, Q96SW2;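 note: pooled lentiviral library of zinc finger degron-EGFP fusions in mCherry-positive Jurkat cells, FACS-sorted after compound exposure, with degron abundance counted by next-generation sequencing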
- T1 chain: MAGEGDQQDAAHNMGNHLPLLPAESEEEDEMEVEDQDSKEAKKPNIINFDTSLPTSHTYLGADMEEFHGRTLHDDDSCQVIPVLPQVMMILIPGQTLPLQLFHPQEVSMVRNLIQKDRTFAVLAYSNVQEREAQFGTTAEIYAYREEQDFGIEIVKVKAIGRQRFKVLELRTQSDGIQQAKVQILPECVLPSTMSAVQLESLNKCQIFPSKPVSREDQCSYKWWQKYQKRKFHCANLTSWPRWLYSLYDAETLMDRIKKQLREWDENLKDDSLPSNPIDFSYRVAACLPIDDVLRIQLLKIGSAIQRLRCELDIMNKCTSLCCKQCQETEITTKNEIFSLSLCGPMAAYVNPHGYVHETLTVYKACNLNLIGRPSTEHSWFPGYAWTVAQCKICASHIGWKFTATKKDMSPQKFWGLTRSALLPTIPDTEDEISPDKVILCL
- method description: log2 fold change of degron read counts, EGFP-low vs EGFP+ sorted cells (limma voom), compound-induced degradation; higher = more compound-induced degradation of the degron-EGFP fusion; degrons are variants of IKZF1/3 zinc finger 2; compound dose not given here
- conditions: Jurkat; 18 h; compound: thalidomide
In all, about 8,300 sequences were measured (“log2 fold change of degron read counts, EGFP-low vs EGFP+ sorted cells (limma voom), compound-induced degradation”: median about -1.1, highest 2% from about 3.2 on). The list comes from a sample in which the highest values are over-represented; it also holds close analogues and randomly drawn sequences.
Think of 3 as a floor: if log2 fold change of degron read counts stands on it or above, it is 1; beneath it, -1.

Use these answered entries as a reference point.
Assess whether reported log2 fold change of degron read counts for LTCPICGFSCTQKGNLLRHIKL [46L_47T_49P_50I_52G_53F_54S_55C_67L_, Q9UKT9] sits at 3 or higher.
1

Assess whether reported log2 fold change of degron read counts for FVCNICGAQFTQKGNLLRHIKL [46F_47V_49N_50I_52G_53A_54Q_55F_67L_, Q9UKT9] sits at 3 or higher.
-1

Assess whether reported log2 fold change of degron read counts for LQCPICGFWCTQKGNLLRHIKL [46L_47Q_49P_50I_52G_53F_54W_55C_67L_, Q9UKT9] sits at 3 or higher.
-1

Assess whether reported log2 fold change of degron read counts for FACNICGAQFTQKGNLLRHIKL [46F_47A_49N_50I_52G_53A_54Q_55F_67L_, Q9UKT9] sits at 3 or higher.
-1

New cases:
Assess whether reported log2 fold change of degron read counts for FFCPICGHDFTQKGNLLRHIKL [46F_47F_49P_50I_52G_53H_54D_55F_67L_, Q9UKT9] sits at 3 or higher.
-1

Assess whether reported log2 fold change of degron read counts for FYCNICGAQFTQKGNLLRHIKL [46F_47Y_49N_50I_52G_53A_54Q_55F_67L_, Q9UKT9] sits at 3 or higher.
-1

Assess whether reported log2 fold change of degron read counts for FQCNICGAQFTQKGNLLRHIKL [46F_47Q_49N_50I_52G_53A_54Q_55F_67L_, Q9UKT9] sits at 3 or higher.
1
